// provenance: patent US20260092115A1

Target Entity: T1, human CTLA4 (soluble analyte of the Biacore assays of Examples 3-3, 4 and 5) (human, UniProt P16410 36-161)
T1 construct: also called hCTLA4
T1 sequence: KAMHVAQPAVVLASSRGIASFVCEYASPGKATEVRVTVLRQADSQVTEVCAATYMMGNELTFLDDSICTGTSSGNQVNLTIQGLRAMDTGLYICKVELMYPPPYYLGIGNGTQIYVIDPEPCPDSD
Test Summary: SPR 37C, Ab on Protein G, 1000 nM CTLA4, ATP 1 uM; ATP 1 uM; binding amount at 1000 nM CTLA4
Here the recorded Binding to Human CTLA4 (amount per unit antibody) is given for each entry.
Please state the value as a number alone, without comment.

04H1207-G1m/04L1086-lam1 (antibody, human IgG1, lambda, V domains shown) VH: EVQLVESGGGLVKPGGSLRLSCAASGFTFSSKTMNWVRQAPGKGLEWVSSISTRSGYIYYAESVKGRFTISRDNAKNSLYLQMNSLRAEDTAVYYCARYGKREDMLWVFDYWGQGTLVTVSS VL: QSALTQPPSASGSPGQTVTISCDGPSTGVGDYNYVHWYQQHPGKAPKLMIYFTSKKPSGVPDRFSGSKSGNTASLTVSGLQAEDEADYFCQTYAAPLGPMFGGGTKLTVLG: 0.047

Consider 04H1077-G1m/04L1034-lam1 (antibody, human IgG1, lambda, V domains shown) VH: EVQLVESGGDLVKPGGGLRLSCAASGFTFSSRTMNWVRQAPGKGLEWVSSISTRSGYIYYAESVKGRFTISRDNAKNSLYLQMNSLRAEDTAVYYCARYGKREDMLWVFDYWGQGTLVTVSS VL: QSALTQPPSASGSPGQTVTISCDGPSTDVGDYNWVSWYQQHPGKAPKLMIYFTSKKPSGVPDRFSGSKSGNTASLTVSGLQAEDEADYFCSTYAAPLGPMFGGGTKLTVLG . Its measured Binding to Human CTLA4 (amount per unit antibody) is 0.007

Consider 04H1208-G1m/04L1086-lam1 (antibody, human IgG1, lambda, V domains shown) VH: EVQLVESGGGLVKPGGSLRLSCAASGFTFSSKTMNWVRQAPGKGLEWVSSISTRSGYIYYARSVKGRFTISRDNAKNSLYLQMNSLRAEDTAVYYCARYGKREDMLWVFDYWGQGTLVTVSS VL: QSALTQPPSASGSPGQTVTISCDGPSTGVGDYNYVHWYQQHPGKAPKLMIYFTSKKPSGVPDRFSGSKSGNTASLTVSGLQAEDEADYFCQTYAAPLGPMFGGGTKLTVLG . Its measured Binding to Human CTLA4 (amount per unit antibody) is 0.03
